# Method Description: IUF_NPC2a_radial_glia_migration_72hr: Leibniz Research Institute for Environmental Medicine (IUF) 72-hour Neural Progenitor Cell Migration Assay for Radial Glia Migration (NPC2a) (AID 2284299)
Calls of active or inactive are those of the source. How the source made its calls: active means hit-call score of the fitted dose curve at least 0.9, where 1 is the maximum; inactive means score below 0.9.
Labels: active, inactive

CC(=O)[O-].CC(=O)[O-].O.O.O.[Pb+2]; inactive
CC1(C)C(C=C(Cl)c2ccc(Cl)cc2)C1C(=O)OC(C#N)c1ccc(F)c(Oc2ccccc2)c1 (stereo not given); inactive
CC(C)CCCCCCCOP(=O)(Oc1ccccc1)Oc1ccccc1; inactive
C[n+]1ccc(-c2cc[n+](C)cc2)cc1; inactive
CC(=O)[O-].[Tl+]; active

###

# Method Description: CCTE_Shafer_MEA_dev_correlation_coefficient_mean: CCTE's Neural Network Formation Assay for Mean Correlation Coefficient, Shafer Lab (AID 2284093)
Calls of active or inactive are those of the source. Rule for the calls: active = hit-call score of the fitted dose curve at least 0.9, where 1 is the maximum; inactive = score below 0.9.
Labels: active, inactive

[CH3][Hg][Cl]; active
CC1(C)C(C=C(Cl)Cl)C1C(=O)O[C@H](C#N)c1cccc(Oc2ccccc2)c1 (stereo not given in full); active
C[n+]1ccc(-c2cc[n+](C)cc2)cc1; active
CC1(C)[C@H](C(=O)O[C@H](C#N)c2cccc(Oc3ccccc3)c2)[C@@H]1C=C(Br)Br; active
CCOP(=O)(OCC)SCSC(C)(C)C; inactive

###

# Method Description: BSK_BE3C_SRB: Viability Assessment in the BioMAP Diversity Plus: BE3C Assay (AID 2283028);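 further: measured 24 h after chemical dosing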
# Protocol Conditions: primary human bronchial epithelial cells
Calls of active or inactive are those of the source. The calls were made as follows: active = hit-call score of the fitted dose curve at least 0.9, where 1 is the maximum; inactive = score below 0.9.
Labels: active, inactive

O=[N+]([O-])C=Cc1ccccc1; active
CC(=O)/C=C/c1ccccc1; inactive
COCC(=O)N(c1c(C)cccc1C)N1CCOC1=O; inactive
Clc1ccc(-c2ccccc2)cc1; inactive
CCC(C)c1cc([N+](=O)[O-])cc([N+](=O)[O-])c1OC(=O)C=C(C)C (stereo not given); active

###

# Method Description: CCTE_Mundy_HCI_Cortical_Synap_Neur_Matur_BPCount: CCTE's Synaptogenesis and Neurite Maturation Assay in rat cortical cells for Branch Point Count, Mundy Lab (AID 2284211)
Activity calls are given as the source filed them. How the source made its calls: active means hit-call score of the fitted dose curve at least 0.9, where 1 is the maximum; inactive means score below 0.9.
Labels: active, inactive

CC1(C)[C@@H](C=C(Cl)Cl)[C@@H]1C(=O)O[C@@H](C#N)c1ccc(F)c(Oc2ccccc2)c1; inactive
CNC(=N[N+](=O)[O-])NCC1CCOC1 (configuration not stated); inactive
C[n+]1ccc(-c2cc[n+](C)cc2)cc1; active
CCC[CH2][Sn]([CH2]CCC)([CH2]CCC)[O][Sn]([CH2]CCC)([CH2]CCC)[CH2]CCC; active
Cc1ccc(OP(=O)(Oc2ccc(C)cc2)Oc2ccc(C)cc2)cc1 (tested in a mixture with another compound); inactive
CC(=O)[O-].[Tl+]; active
Brc1ccc(Oc2ccc(Br)cc2Br)c(Br)c1; active

###

# Read-out: Intercellular Adhesion Molecule 1 (ICAM1), ICAM1 (gene 3383)
# Method Description: BSK_KF3CT_ICAM1: BioMAP Diversity Plus: KF3CT Assay for Intercellular Adhesion Molecule 1 (ICAM1) Biomarker Activity (AID 2283067)
# Protocol Conditions: primary human keratinocytes with fibroblasts; actives raise or lower the signal
Calls of active or inactive are those of the source. The calls were made as follows: active = hit-call score of the fitted dose curve at least 0.9, where 1 is the maximum; inactive = score below 0.9.
Labels: 1.0 (active), 0.0 (inactive)

O=C(CCl)c1ccccc1; 1.0
CCc1cc(C)cc(CC)c1-c1c(OC(=O)C(C)(C)C)n2n(c1=O)CCOCC2; 0.0
CC(=O)/C=C/c1ccccc1; 0.0
O=S(=O)(c1ccccc1)c1ccccc1; 0.0
CC(C)CCCCCCCOP(=O)(Oc1ccccc1)Oc1ccccc1; 0.0
CC(C)(c1cc(Cl)c(O)c(Cl)c1)c1cc(Cl)c(O)c(Cl)c1; 1.0
CCCCCCCCCCCC#N; 0.0
CC(C)CCCCCCCOC(=O)c1ccccc1C(=O)OCCCCCCCC(C)C; 0.0
CC(C)COP(=O)(OCC(C)C)OCC(C)C; 0.0
COCC(=O)N(c1c(C)cccc1C)N1CCOC1=O; 0.0
O=C(O)CCCc1ccc(N(CCCl)CCCl)cc1; 1.0
O=[N+]([O-])c1ccc(Cl)cc1; 0.0
O=C1C(Cl)=C(Cl)C(=O)C(Cl)=C1Cl; 1.0
